- conditions: in DMF, 333.15 K
measured.endpoint: solubility (mole fraction)
API doc: respond with a numeric literal and nothing else, no unit.

May I ask what solubility (mole fraction) has been recorded for CSCC1CN(/N=C/c2ccc([N+](=O)[O-])o2)C(=O)O1 (stereo unspecified) ?
0.0571

----------
- conditions: in acetonitrile, 308.15 K
measured.endpoint: solubility (mole fraction)
API doc: respond with a numeric literal and nothing else, no unit.

May I ask what solubility (mole fraction) has been recorded for CSCC1CN(/N=C/c2ccc([N+](=O)[O-])o2)C(=O)O1 (stereo unspecified) ?
0.00457

----------
- conditions: in isopropanol, 298.15 K
measured.endpoint: solubility (mole fraction)

May I ask what solubility (mole fraction) has been recorded for CSCC1CN(/N=C/c2ccc([N+](=O)[O-])o2)C(=O)O1 (stereo unspecified) ?
2e-05
